B1: Tudor domain-containing protein 3, residues 554 to 611; numbered along this chain, Q9H7E2 (parent)
chain: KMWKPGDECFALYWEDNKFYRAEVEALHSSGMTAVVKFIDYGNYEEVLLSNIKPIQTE

- Variants of: B1
- assay_comment: abundance fitness (aPCA) (normalised: wild type 0, dead -1); higher = more abundant; growth selection in yeast, the domain comes from the species named
- run_parameters: Homo sapiens
readout_kind: abundance fitness

[[record]]
mut = "K37G"
experimental_result = -0.833

[[record]]
mut = "P54W"
experimental_result = -0.767

[[record]]
mut = "S30A"
experimental_result = -0.192

[[record]]
mut = "M32K"
experimental_result = -0.165

[[record]]
mut = "D7K"
experimental_result = -0.887

[[record]]
mut = "A26D"
experimental_result = -0.165

[[record]]
mut = "N51D"
experimental_result = -0.097

[[record]]
mut = "W14S"
experimental_result = 0.134

[[record]]
mut = "N43H"
experimental_result = -0.073

[[record]]
mut = "Q56F"
experimental_result = -0.071

[[record]]
mut = "K18S"
experimental_result = -0.254

[[record]]
mut = "P54F"
experimental_result = -0.701

[[record]]
mut = "E46Y"
experimental_result = -0.324

[[record]]
mut = "G6I"
experimental_result = -0.941

[[record]]
mut = "F19A"
experimental_result = -0.831

[[record]]
mut = "E15Q"
experimental_result = -0.111

[[record]]
mut = "L27D"
experimental_result = -0.871

[[record]]
mut = "L12G"
experimental_result = -0.782

[[record]]
mut = "N43E"
experimental_result = -0.079

